Where these numbers come from: ChEMBL document CHEMBL1909046

# TEST TARGET: Platelet-activating factor receptor (Homo sapiens, UniProt P25105); further: in other assays of this panel Not Active means under 50% inhibition at 10 µM
# Sequence (P25105 whole entry): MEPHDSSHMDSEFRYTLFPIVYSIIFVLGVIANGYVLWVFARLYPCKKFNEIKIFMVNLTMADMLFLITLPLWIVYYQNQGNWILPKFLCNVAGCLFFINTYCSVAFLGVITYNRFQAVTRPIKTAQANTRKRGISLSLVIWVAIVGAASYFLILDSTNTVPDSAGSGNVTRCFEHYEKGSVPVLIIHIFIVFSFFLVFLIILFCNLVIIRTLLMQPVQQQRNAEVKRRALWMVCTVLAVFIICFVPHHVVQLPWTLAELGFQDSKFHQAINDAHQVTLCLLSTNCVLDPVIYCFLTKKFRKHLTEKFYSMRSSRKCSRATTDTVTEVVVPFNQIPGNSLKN
# PROTOCOL DETAILS: biochemical
# Assay type: tissue-based
# STATED CONDITIONS: read-out: Ki
MEASURE: Ki (µM)
# output: bare number, implied unit µM

Q: Output Ki of Clc1ccccc1C(c1ccccc1)(c1ccccc1)n1ccnc1 [CLOTRIMAZOLE]
Ans: 22.6

---

# PROTOCOL DETAILS: DRUGMATRIX: Glutamate, NMDA, Phencyclidine radioligand binding (ligand: [3H] TCP)
# Format: cell membranes, Rattus norvegicus, Wistar, Cerebral cortex, Membrane
# STATED CONDITIONS: Not Active = under 50% inhibition at 10 µM
MEASURE: IC50

// solved cases for IC50 follow
COMPOUND: CN1C[C@H](C(=O)N[C@]2(C)O[C@@]3(O)[C@@H]4CCCN4C(=O)[C@H](Cc4ccccc4)N3C2=O)C=C2c3cccc4[nH]cc(c34)C[C@H]21
REPORTED RESULT: Not Active
//
COMPOUND: CC1(C)[C@H]2CC[C@]1(C)C(=O)C2 [(-)-CAMPHOR]
REPORTED RESULT: Not Active
//
COMPOUND: NCC(=O)O
REPORTED RESULT: Not Active
//
COMPOUND: CC(C)(C)NCC(O)c1ccc(O)c(CO)c1 (configuration not stated)
REPORTED RESULT: Not Active
//
COMPOUND: COc1ccc2c(c1)c(CC(=O)OCC(=O)O)c(C)n2C(=O)c1ccc(Cl)cc1
REPORTED RESULT: Not Active

Q: Output IC50 of CNC(=O)Oc1ccc2c(c1)[C@]1(C)CCN(C)[C@@H]1N2C
Ans: Not Active

---

# TEST TARGET: Aldo-keto reductase family 1 member B1 (Rattus norvegicus); further: in other assays of this panel Not Active means under 50% inhibition at 10 µM;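 further: inhibition of aldose reductase enzyme activity, measured with DL-glyceraldehyde as the substrate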
# Assay type: tissue-based, Lens of camera-type eye

COMPOUND SMILES: CC1(C)[C@@H](O[C@H]2O[C@H](C(=O)O)[C@@H](O)[C@H](O)[C@H]2O[C@@H]2O[C@H](C(=O)O)[C@@H](O)[C@H](O)[C@H]2O)CC[C@]2(C)[C@H]3C(=O)C=C4[C@@H]5C[C@@](C)(C(=O)O)CC[C@]5(C)CC[C@@]4(C)[C@]3(C)CC[C@@H]12
IC50: Not Active
//
COMPOUND SMILES: Clc1ccccc1C(c1ccccc1)(c1ccccc1)n1ccnc1
IC50: Not Active
//
COMPOUND SMILES: NNC(=O)c1ccncc1
IC50: Not Active

---

# TEST TARGET: 5-hydroxytryptamine receptor 1A (Rattus norvegicus); further: in other assays of this panel Not Active means under 50% inhibition at 10 µM
# Sequence (P19327 whole entry): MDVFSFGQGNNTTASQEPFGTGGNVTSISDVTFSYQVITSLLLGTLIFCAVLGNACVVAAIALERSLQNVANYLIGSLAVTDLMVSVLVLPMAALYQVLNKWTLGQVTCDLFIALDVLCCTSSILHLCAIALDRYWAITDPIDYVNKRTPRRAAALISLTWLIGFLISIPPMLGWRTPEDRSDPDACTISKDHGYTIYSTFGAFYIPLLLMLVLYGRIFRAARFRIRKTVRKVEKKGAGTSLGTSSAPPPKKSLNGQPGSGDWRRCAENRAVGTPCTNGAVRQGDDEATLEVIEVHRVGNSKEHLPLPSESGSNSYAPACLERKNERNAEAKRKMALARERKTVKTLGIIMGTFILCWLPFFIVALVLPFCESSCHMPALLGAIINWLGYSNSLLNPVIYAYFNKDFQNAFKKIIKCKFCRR
# Type: cell membranes, CHO-K1, Membrane
# STATED CONDITIONS: cho-k1
MEASURE: Ki

// solved cases for Ki follow
SUBSTANCE: CARBOPLATIN
Ki: Not Active
//
SUBSTANCE: IVERMECTIN
Ki: Not Active
//
SUBSTANCE: OXALIPLATIN
Ki: Not Active
//
SUBSTANCE: GOLD SODIUM THIOMALATE
Ki: Not Active

# ---- query substance ----
Q: Look up 5-hydroxytryptamine receptor 1A (Rattus norvegicus) data: Ki of CISPLATIN , then report it.
Ans: Not Active

---

# PROTOCOL DETAILS: DRUGMATRIX: Glutamate, Kainate radioligand binding (ligand: [3H] Kainic acid)
# Assay type: cell membranes, Rattus norvegicus, Wistar, Brain, Membrane
# STATED CONDITIONS: Not Active = under 50% inhibition at 10 µM
MEASURE: IC50

// solved cases for IC50 follow
MOLECULE: O=C1OC2(c3ccc(O)cc3Oc3cc(O)ccc32)c2ccccc21
REPORTED RESULT: Not Active
//
MOLECULE: NS(=O)(=O)c1cc2c(cc1Cl)NCNS2(=O)=O [HYDROCHLOROTHIAZIDE]
REPORTED RESULT: Not Active
//
MOLECULE: CC(C)[C@H](N)C(=O)OCCOCn1cnc2c(=O)nc(N)[nH]c21
REPORTED RESULT: Not Active
//
MOLECULE: Cc1[nH]cnc1CN1CCc2c(c3ccccc3n2C)C1=O
REPORTED RESULT: Not Active
//
MOLECULE: CC(C)(Oc1ccc(CCNC(=O)c2ccc(Cl)cc2)cc1)C(=O)O [BEZAFIBRATE]
REPORTED RESULT: Not Active
//
MOLECULE: Cc1c(-c2ccccc2)oc2c(C(=O)OCCN3CCCCC3)cccc2c1=O [FLAVOXATE]
REPORTED RESULT: Not Active
//
MOLECULE: C=C1CC[C@H](O)C/C1=C/C=C1\CCC[C@]2(C)[C@@H]([C@H](C)/C=C/[C@H](C)C(C)C)CC[C@@H]12
REPORTED RESULT: Not Active

# ---- query molecule ----
Q: Output IC50 of CCOC(=O)OC(C)OC1=C(C(=O)Nc2ccccn2)N(C)S(=O)(=O)c2ccccc21 (stereo not drawn)
Ans: Not Active

---

# PROTOCOL DETAILS: DRUGMATRIX: Serotonin (5-Hydroxytryptamine) 5-HT3 radioligand binding (ligand: [3H] GR-65630)
# Type: cell membranes, Membrane
# STATED CONDITIONS: hek293; Not Active = under 50% inhibition at 10 µM
MEASURE: Ki

// solved cases for Ki follow
MOLECULE: N=C(N)NCCCCNC(=N)N.O=S(=O)(O)O [ARCAINE SULFATE]
REPORTED RESULT: Not Active
//
MOLECULE: CN[C@H](CC(C)C)C(=O)N[C@H]1C(=O)N[C@@H](CC(N)=O)C(=O)N[C@H]2C(=O)N[C@H]3C(=O)N[C@H](C(=O)N[C@H](C(=O)O)c4cc(O)cc(O)c4-c4cc3ccc4O)[C@H](O)c3ccc(c(Cl)c3)Oc3cc2cc(c3O[C@@H]2O[C@H](CO)[C@@H](O)[C@H](O)[C@H]2O[C@H]2C[C@](C)(N)[C@H](O)[C@H](C)O2)Oc2ccc(cc2Cl)[C@H]1O [VANCOMYCIN]
REPORTED RESULT: Not Active
//
MOLECULE: CCOC(=O)OC(C)OC1=C(C(=O)Nc2ccccn2)N(C)S(=O)(=O)c2ccccc21 (stereo unspecified) [AMPIROXICAM]
REPORTED RESULT: Not Active
//
MOLECULE: Oc1c(Cl)cc(Cl)cc1Sc1cc(Cl)cc(Cl)c1O [BITHIONOL]
REPORTED RESULT: Not Active
//
MOLECULE: NC(=O)c1ncn([C@@H]2O[C@H](CO)[C@@H](O)[C@H]2O)n1 [RIBAVIRIN]
REPORTED RESULT: Not Active

Q: Output Ki of O=C1CCc2cc(OCCCCc3nnnn3C3CCCCC3)ccc2N1 [CILOSTAZOL]
Ans: Not Active

---

# TEST TARGET: Adenosine receptor A2a (Homo sapiens, UniProt P29274)
# Sequence (P29274 whole entry): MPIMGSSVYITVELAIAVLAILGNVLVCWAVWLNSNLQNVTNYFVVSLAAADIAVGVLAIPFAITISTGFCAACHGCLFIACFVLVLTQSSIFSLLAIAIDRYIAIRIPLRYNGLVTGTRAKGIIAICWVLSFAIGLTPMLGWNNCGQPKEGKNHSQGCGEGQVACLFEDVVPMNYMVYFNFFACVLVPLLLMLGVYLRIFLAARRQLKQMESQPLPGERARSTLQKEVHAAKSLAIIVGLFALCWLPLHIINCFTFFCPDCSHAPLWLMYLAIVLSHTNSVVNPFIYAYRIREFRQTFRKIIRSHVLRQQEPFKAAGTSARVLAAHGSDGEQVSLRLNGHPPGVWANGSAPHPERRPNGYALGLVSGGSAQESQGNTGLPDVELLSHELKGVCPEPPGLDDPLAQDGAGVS
# PROTOCOL DETAILS: DRUGMATRIX: Adenosine A2A radioligand binding (ligand: […])
# Assay type: cell membranes, HEK293, Membrane
# STATED CONDITIONS: Not Active = under 50% inhibition at 10 µM; read-out: IC50
MEASURE: pIC50
Bear in mind: pIC50 is minus log10 of a mol/L concentration; give just that figure.

Q: Output pIC50 of Oc1c(Cl)cc(Cl)cc1Sc1cc(Cl)cc(Cl)c1O
Ans: 5.93

---

# PROTOCOL DETAILS: DRUGMATRIX: Glutamate, NMDA, Phencyclidine radioligand binding (ligand: [3H] TCP)
# Format: cell membranes, Rattus norvegicus, Wistar, Cerebral cortex, Membrane
# STATED CONDITIONS: Not Active = under 50% inhibition at 10 µM
MEASURE: Ki

// solved cases for Ki follow
COMPOUND: Oc1cccc2cccnc12
Ki: Not Active
//
COMPOUND: CCCCCCCCCc1ccc(O)cc1
Ki: Not Active
//
COMPOUND: CC[C@@]1(O)C(=O)OCc2c1cc1n(c2=O)Cc2cc3ccccc3nc2-1
Ki: Not Active
//
COMPOUND: CN[C@H](CC(C)C)C(=O)N[C@H]1C(=O)N[C@@H](CC(N)=O)C(=O)N[C@H]2C(=O)N[C@H]3C(=O)N[C@H](C(=O)N[C@H](C(=O)O)c4cc(O)cc(O)c4-c4cc3ccc4O)[C@H](O)c3ccc(c(Cl)c3)Oc3cc2cc(c3O[C@@H]2O[C@H](CO)[C@@H](O)[C@H](O)[C@H]2O[C@H]2C[C@](C)(N)[C@H](O)[C@H](C)O2)Oc2ccc(cc2Cl)[C@H]1O
Ki: Not Active
//
COMPOUND: CC(C)(C)NC(=O)[C@@H]1CN(Cc2cccnc2)CCN1C[C@@H](O)C[C@@H](Cc1ccccc1)C(=O)N[C@H]1c2ccccc2C[C@H]1O.O
Ki: Not Active

Q: Output Ki of CCCc1cc(=O)[nH]c(=S)[nH]1
Ans: Not Active

Q: Output Ki of O=C1c2c(O)ccc(O)c2C(=O)c2c(NCCNCCO)ccc(NCCNCCO)c21
Ans: Not Active

Q: Output Ki of CC[C@H]1OC(=O)[C@H](C)[C@@H](O[C@H]2C[C@@](C)(OC)[C@@H](O)[C@H](C)O2)[C@H](C)[C@@H](O[C@@H]2O[C@H](C)C[C@H](N(C)C)[C@H]2O)[C@](C)(O)C[C@@H](C)/C(=N\OCOCCOC)[C@H](C)[C@@H](O)[C@]1(C)O
Ans: Not Active

Q: Output Ki of N#C[C@H](O[C@@H]1O[C@H](CO[C@@H]2O[C@H](CO)[C@@H](O)[C@H](O)[C@H]2O)[C@@H](O)[C@H](O)[C@H]1O)c1ccccc1
Ans: Not Active

Q: Output Ki of O=c1cc(-c2ccccc2)oc2c1ccc1ccccc12
Ans: Not Active

Q: Output Ki of O=C1NC(=O)C(c2ccccc2)(c2ccccc2)N1
Ans: Not Active

Q: Output Ki of Cc1ncc([N+](=O)[O-])n1CC(C)O (stereo not given)
Ans: Not Active

Q: Output Ki of C=C1CC[C@H](O)C/C1=C/C=C1\CCC[C@]2(C)[C@@H]([C@H](C)/C=C/[C@H](C)C(C)C)CC[C@@H]12
Ans: Not Active
